This collection of values is drawn from paper PMC6159513.

# TEST_SYSTEM: RBD (RGG1-RGG2-RGG3 containing) (UniProt P35637 212-526)
# Sequence (P35637 212-526): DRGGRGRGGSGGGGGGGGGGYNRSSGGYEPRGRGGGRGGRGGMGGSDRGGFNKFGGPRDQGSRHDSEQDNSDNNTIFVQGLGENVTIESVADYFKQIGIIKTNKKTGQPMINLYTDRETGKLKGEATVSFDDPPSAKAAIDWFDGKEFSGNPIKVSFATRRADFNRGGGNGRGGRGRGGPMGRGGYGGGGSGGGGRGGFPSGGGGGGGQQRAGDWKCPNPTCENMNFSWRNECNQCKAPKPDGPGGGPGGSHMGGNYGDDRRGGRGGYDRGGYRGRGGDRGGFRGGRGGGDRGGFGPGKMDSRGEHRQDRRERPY
# MEASUREMENT_PROTOCOL: EMSA

- BINDER: "AGGGTTAGGGTTAGGGTTAGGG (structured_DNA) [Htelo]"
  Kd / nM: 6.7
- BINDER: "UUAGGGUUAGGGUUAGGGUUAGGG (structured_RNA) [TERRA]"
  Kd / nM: 6.2
